# TARGET OR TEST SYSTEM: EZH2 (Y641F) (Homo sapiens (Human), UniProt Q15910, Y641F)
# Sequence (Q15910 whole entry Y641F): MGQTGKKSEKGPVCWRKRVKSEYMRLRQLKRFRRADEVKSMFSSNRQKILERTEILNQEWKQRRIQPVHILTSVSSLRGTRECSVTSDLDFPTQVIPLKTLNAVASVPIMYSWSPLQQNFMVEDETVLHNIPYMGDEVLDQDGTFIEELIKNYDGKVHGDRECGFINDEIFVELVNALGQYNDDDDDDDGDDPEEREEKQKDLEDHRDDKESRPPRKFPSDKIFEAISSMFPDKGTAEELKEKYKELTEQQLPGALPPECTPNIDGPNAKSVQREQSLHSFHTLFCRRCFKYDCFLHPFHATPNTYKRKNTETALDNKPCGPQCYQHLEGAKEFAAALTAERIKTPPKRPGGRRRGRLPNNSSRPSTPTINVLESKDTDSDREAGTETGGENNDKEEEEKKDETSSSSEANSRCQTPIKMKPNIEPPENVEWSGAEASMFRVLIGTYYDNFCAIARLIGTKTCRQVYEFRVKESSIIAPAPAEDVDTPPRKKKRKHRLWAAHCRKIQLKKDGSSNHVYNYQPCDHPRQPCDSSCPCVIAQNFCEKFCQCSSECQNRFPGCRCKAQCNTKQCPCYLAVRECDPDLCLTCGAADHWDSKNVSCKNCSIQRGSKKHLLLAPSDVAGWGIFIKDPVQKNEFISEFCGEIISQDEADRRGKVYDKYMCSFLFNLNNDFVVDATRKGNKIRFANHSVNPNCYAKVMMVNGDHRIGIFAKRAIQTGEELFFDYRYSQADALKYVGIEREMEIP
# Sequence (O75530 whole entry partner): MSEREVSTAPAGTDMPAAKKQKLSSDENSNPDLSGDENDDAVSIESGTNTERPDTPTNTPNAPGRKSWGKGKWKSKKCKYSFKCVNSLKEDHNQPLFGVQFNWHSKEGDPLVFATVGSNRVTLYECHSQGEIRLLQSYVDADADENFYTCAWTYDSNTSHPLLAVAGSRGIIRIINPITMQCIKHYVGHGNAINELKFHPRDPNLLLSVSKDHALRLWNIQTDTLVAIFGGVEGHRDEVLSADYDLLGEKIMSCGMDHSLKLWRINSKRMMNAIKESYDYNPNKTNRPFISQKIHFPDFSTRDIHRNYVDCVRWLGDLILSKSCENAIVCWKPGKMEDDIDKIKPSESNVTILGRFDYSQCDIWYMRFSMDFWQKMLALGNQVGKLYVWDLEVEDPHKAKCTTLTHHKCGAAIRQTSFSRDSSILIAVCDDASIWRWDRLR
# Sequence (Q15022 whole entry partner): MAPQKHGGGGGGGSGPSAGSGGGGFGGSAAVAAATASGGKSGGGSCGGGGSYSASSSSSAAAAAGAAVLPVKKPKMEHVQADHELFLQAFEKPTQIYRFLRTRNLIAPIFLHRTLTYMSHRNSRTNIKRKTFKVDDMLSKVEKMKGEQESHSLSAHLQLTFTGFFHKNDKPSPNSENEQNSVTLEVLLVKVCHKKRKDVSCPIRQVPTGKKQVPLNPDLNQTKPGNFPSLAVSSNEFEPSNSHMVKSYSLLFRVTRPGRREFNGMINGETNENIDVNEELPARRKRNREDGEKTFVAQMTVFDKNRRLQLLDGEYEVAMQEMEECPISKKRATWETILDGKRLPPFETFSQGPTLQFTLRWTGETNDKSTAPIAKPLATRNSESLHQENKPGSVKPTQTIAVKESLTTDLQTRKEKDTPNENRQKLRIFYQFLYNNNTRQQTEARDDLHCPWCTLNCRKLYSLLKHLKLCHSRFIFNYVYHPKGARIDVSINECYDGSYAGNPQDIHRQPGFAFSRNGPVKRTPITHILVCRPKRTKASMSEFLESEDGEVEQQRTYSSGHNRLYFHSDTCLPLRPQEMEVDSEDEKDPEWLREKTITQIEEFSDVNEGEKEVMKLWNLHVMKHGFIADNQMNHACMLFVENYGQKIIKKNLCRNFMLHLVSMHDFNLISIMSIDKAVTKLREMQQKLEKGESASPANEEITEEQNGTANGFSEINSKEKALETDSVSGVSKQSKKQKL
# ASSAY INFO: Test on EZH2 (Y641F) inhibitory activity
Measured IC50 accompanies every entry in the list below.
MEASURE NAME: IC50

{"COMPOUND": "CCN(c1cc(O[C@H]2C[C@H](N3CCCCC3)C2)cc(C(=O)NCc2c(O)cc(C)[nH]c2=O)c1C)C1CCC(F)(F)CC1 [Example 94]", "OBSERVED MEASUREMENT": "123 nM"}
{"COMPOUND": "CCN(c1cc(O[C@H]2C[C@H](N3C[C@@H](C)O[C@@H](C)C3)C2)cc(C(=O)NCc2c(C)cc(C)[nH]c2=O)c1C)C1CCC(F)(F)CC1 [Example 45]", "OBSERVED MEASUREMENT": "3 nM"}
{"COMPOUND": "CCN(c1cc(O[C@H]2C[C@H](N3CCCCC3)C2)cc(C(=O)NCc2c(OC)cc(C)[nH]c2=O)c1C)C1CCOCC1 [Example 93]", "OBSERVED MEASUREMENT": "< 0.51 nM"}

---

# Tested on: WSU-DLCL2
# ASSAY INFO: Methylated lysine of histone-H3 (H3K27Me3) detection by ELISA, WSU-DLCL2 cells
# Type: cell-based
# CONDITION PARAMETERS: Homo sapiens, WSUDLCL2, 168 h; WSU-DLCL2, 7 days treatment, H3K27Me3 normalized to total histone-3; read-out: IC50 of cell methylation, WSU-DLCL2

{"COMPOUND": "CCN(c1cc(C2CC2CN2CCN(CC(C)(C)C)CC2)cc(C(=O)NCc2c(C)cc(C)[nH]c2=O)c1C)C1CCOCC1 (centres unmarked)", "TARGET OR TEST SYSTEM": "WSU-DLCL2", "IC50": "50 to 500 nM"}
{"COMPOUND": "CCN(c1cc(C2CC2CN2CCC(F)CC2)cc(C(=O)NCc2c(C)cc(C)[nH]c2=O)c1C)C1CCOCC1 (centres unmarked)", "TARGET OR TEST SYSTEM": "WSU-DLCL2", "IC50": "50 to 500 nM"}
{"COMPOUND": "CCN(c1cc(C2CC2CN2CCCCC2)cc(C(=O)NCc2c(C)cc(C)[nH]c2=O)c1C)C1CCOCC1 (centres unmarked)", "TARGET OR TEST SYSTEM": "WSU-DLCL2", "IC50": "50 to 500 nM"}
{"COMPOUND": "CCN(c1cc(O[C@H]2C[C@H](N3C[C@@H](C)O[C@@H](C)C3)C2)cc(C(=O)NCc2c(C)cc(C)[nH]c2=O)c1Cl)C1CCOCC1", "TARGET OR TEST SYSTEM": "WSU-DLCL2", "IC50": "50 to 500 nM"}
{"COMPOUND": "CCN(c1cc(C2CC2CN2C[C@@H](C)O[C@@H](C)C2)cc(C(=O)NCc2c(C)cc(C)[nH]c2=O)c1Cl)C1CCOCC1 (some centres unmarked)", "TARGET OR TEST SYSTEM": "WSU-DLCL2", "IC50": "500 to 1000 nM"}
{"COMPOUND": "CCN(c1cc(C2CCC2)cc(C(=O)NCc2c(C)cc(C)[nH]c2=O)c1C)C1CCOCC1", "TARGET OR TEST SYSTEM": "WSU-DLCL2", "IC50": "50 to 500 nM"}
{"COMPOUND": "CCN(c1cc(O[C@H]2C[C@H](N3CCC(C)CC3)C2)cc(C(=O)NCc2c(C)cc(C)[nH]c2=O)c1Cl)C1CCOCC1", "TARGET OR TEST SYSTEM": "WSU-DLCL2", "IC50": "< 50 nM"}
{"COMPOUND": "CCN(c1cc(O[C@H]2C[C@@H](CN3CCOCC3)C2)cc(C(=O)NCc2c(C)cc(C)[nH]c2=O)c1C)C1CCOCC1", "TARGET OR TEST SYSTEM": "WSU-DLCL2", "IC50": "50 to 500 nM"}
{"COMPOUND": "CCN(c1cc(O[C@H]2C[C@H](CN3C[C@@H](C)O[C@@H](C)C3)C2)cc(C(=O)NCc2c(C)cc(C)[nH]c2=O)c1Cl)C1CCOCC1", "TARGET OR TEST SYSTEM": "WSU-DLCL2", "IC50": "50 to 500 nM"}
{"COMPOUND": "CCN(c1cc(O[C@H]2C[C@H](N3CCC(C)CC3)C2)cc(C(=O)NCc2c(C)cc(C)[nH]c2=O)c1C)C1CCOCC1", "TARGET OR TEST SYSTEM": "WSU-DLCL2", "IC50": "50 to 500 nM"}
{"COMPOUND": "CCN(c1cc(OC2CC(C)(C)C2)cc(C(=O)NCc2c(C)cc(C)[nH]c2=O)c1C)C1CCOCC1", "TARGET OR TEST SYSTEM": "WSU-DLCL2", "IC50": "> 1000 nM"}
{"COMPOUND": "CCN(c1cc(C2CC2CN2CCNCC2)cc(C(=O)NCc2c(C)cc(C)[nH]c2=O)c1C)C1CCOCC1 (centres unmarked)", "TARGET OR TEST SYSTEM": "WSU-DLCL2", "IC50": "50 to 500 nM"}
{"COMPOUND": "CCN(c1cc(C2CC2)cc(C(=O)NCc2c(C)cc(C)[nH]c2=O)c1C)C1CCOCC1", "TARGET OR TEST SYSTEM": "WSU-DLCL2", "IC50": "50 to 500 nM"}
{"COMPOUND": "CCN(c1cc(OC2CC(C)C2)cc(C(=O)NCc2c(C)cc(C)[nH]c2=O)c1C)C1CCOCC1 (centres unmarked)", "TARGET OR TEST SYSTEM": "WSU-DLCL2", "IC50": "500 to 1000 nM"}
{"COMPOUND": "CCN(c1cc(O[C@H]2C[C@H](CN3CCOCC3)C2)cc(C(=O)NCc2c(C)cc(C)[nH]c2=O)c1C)C1CCOCC1", "TARGET OR TEST SYSTEM": "WSU-DLCL2", "IC50": "50 to 500 nM"}
{"COMPOUND": "CCN(c1cc(O[C@H]2C[C@@H](N3CCN(S(C)(=O)=O)CC3)C2)cc(C(=O)NCc2c(C)cc(C)[nH]c2=O)c1C)C1CCOCC1", "TARGET OR TEST SYSTEM": "WSU-DLCL2", "IC50": "< 50 nM"}
{"COMPOUND": "CCN(c1cc(O[C@H]2C[C@H](N3CC4CC(C3)O4)C2)cc(C(=O)NCc2c(C)cc(C)[nH]c2=O)c1Cl)C1CCOCC1", "TARGET OR TEST SYSTEM": "WSU-DLCL2", "IC50": "50 to 500 nM"}
{"COMPOUND": "CCN(c1cc(O[C@H]2C[C@H](N3CCN(C(C)C)CC3)C2)cc(C(=O)NCc2c(C)cc(C)[nH]c2=O)c1C)C1CCOCC1", "TARGET OR TEST SYSTEM": "WSU-DLCL2", "IC50": "50 to 500 nM"}
{"COMPOUND": "CCN(c1cc(O[C@H]2C[C@H](N3C[C@@H](C)O[C@@H](C)C3)C2)cc(C(=O)NCc2c(C)cc(C)[nH]c2=O)c1C)[C@H]1CC[C@H](N(C)CCOC)CC1", "TARGET OR TEST SYSTEM": "WSU-DLCL2", "IC50": "500 to 1000 nM"}
{"COMPOUND": "CCN(c1cc(C2CC2CN2CCN(C(=O)OC)CC2)cc(C(=O)NCc2c(C)cc(C)[nH]c2=O)c1C)C1CCOCC1 (centres unmarked)", "TARGET OR TEST SYSTEM": "WSU-DLCL2", "IC50": "< 50 nM"}
{"COMPOUND": "CCN(c1cc([S+]([O-])C2CCC2)cc(C(=O)NCc2c(C)cc(C)[nH]c2=O)c1C)C1CCOCC1 (centres unmarked)", "TARGET OR TEST SYSTEM": "WSU-DLCL2", "IC50": "500 to 1000 nM"}
{"COMPOUND": "CCN(c1cc(C2CC2CN2CCOCC2)cc(C(=O)NCc2c(C)cc(C)[nH]c2=O)c1C)[C@H]1CC[C@H](N(C)CCOC)CC1 (some centres unmarked)", "TARGET OR TEST SYSTEM": "WSU-DLCL2", "IC50": "50 to 500 nM"}
{"COMPOUND": "CCN(c1cc(C2CC2CN2CCC(F)(F)CC2)cc(C(=O)NCc2c(C)cc(C)[nH]c2=O)c1C)C1CCOCC1 (centres unmarked)", "TARGET OR TEST SYSTEM": "WSU-DLCL2", "IC50": "50 to 500 nM"}
